Data credit: paper PMC10655782

These compounds were tested on human SHIP1 Ptase‐C2 (Homo sapiens, UniProt Q92835); IC50 is the recorded read-out.
Sequence (Q92835 395-898): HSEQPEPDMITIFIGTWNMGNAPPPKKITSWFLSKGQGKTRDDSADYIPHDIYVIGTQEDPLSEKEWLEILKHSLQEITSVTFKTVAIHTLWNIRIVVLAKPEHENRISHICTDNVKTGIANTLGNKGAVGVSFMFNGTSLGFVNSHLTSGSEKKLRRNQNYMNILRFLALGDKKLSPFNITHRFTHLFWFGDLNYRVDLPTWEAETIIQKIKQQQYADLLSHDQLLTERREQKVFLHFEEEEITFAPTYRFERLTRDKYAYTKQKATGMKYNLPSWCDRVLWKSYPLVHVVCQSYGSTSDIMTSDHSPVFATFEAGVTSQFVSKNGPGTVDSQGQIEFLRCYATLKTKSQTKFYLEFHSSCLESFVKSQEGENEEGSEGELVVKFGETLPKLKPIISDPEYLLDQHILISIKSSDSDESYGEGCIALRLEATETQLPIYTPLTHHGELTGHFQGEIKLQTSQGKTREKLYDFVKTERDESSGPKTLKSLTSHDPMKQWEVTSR
Lab book: enter the figure in µM, no units written.

Entry Clc1ccc(COc2cncc(-c3cnn(C4CCNCC4)c3)c2)c(Cl)c1 [Compound 23, reference compound] under human SHIP1 Ptase‐C2 (Homo sapiens, UniProt Q92835) had IC50 of 251

Result for CC(C)c1ccc(C2C(C#N)=C3N=C(N)c4ccccc4N3C3=C2C(=O)CCC3)cc1 (stereo not shown) , tested on human SHIP1 Ptase‐C2 (Homo sapiens, UniProt Q92835), IC50: 26.8

The reported IC50 value, human SHIP1 Ptase‐C2 (Homo sapiens, UniProt Q92835), for CC(C)CCC[C@@H](C)[C@H]1CC[C@H]2[C@@H]3CCC4C[C@H](N)CC[C@]4(C)[C@H]3CC[C@]12C (stereo partly drawn) [Compound 13, 3α‐aminocholestane, reference compound] reads 201

Entry CC(=O)C1=C(C)Nc2sc(C(=O)c3ccc(Cl)c(Cl)c3)c(N)c2C1c1cccnc1 (stereo not shown) , human SHIP1 Ptase‐C2 (Homo sapiens, UniProt Q92835) data, IC50 value: 18.6
